Record form. Attribute: OD450 nm. Fill in for each entry.
# ASSAY_TARGET: T1, biotinylated hBLyS-ECD (human, UniProt Q9Y275 134-285, biotinylated with Biotin-X-X-NHS (molar ratio 7:1), sites not stated)
# T1 construct: The hBLyS-ECD of Embodiment 1 after biotinylation (Embodiment 2); also called biotinylated immunogen; BLyS protein; not shown: His tag of the pCPC vector
# T1 sequence (Q9Y275 134-285): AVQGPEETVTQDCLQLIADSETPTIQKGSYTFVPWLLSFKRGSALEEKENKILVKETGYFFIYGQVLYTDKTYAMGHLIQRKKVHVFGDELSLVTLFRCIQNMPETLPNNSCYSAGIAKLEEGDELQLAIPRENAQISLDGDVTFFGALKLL
# EXPERIMENT_SUMMARY: ELISA, biotinylated hBLyS-ECD captured on streptavidin; antibody 2.67 nM
I only need the number, thanks.

Entry under test: 97A3C2H4 (antibody, V domains shown, Mouse hybridoma antibody purified on Protein G) VH: EVKLVESGGGLVQPGGSLKLSCAASGFTFSTYTMSWVRQTPEKRLEWVAYISYGGGSTSYPDTVKGRFTISRDNAKNTLYLQMSSLKSEDTAIYYCTRHVTVVENSMDYWGQGTSVTVSS VL: DILLTQSPDILSVSPGERVSFSCRASQSIGTSIHWYQQRTNGSPRLLIKYVSESFSGTPSRFSGSGSGTAFTLTINSVESEDIADYYCQQTHSWPWTFGGGTKLEIK . Its OD450 nm was 2.75

Entry under test: 111D10D6G3 (antibody, V domains shown, Mouse hybridoma antibody purified on Protein G) VH: QVQLQQPGAELVKPGASVKMSCKASGYTFTRHWITWVKQRPGQGLEWIGDIFPGSGSINYNEKFKSEATLTVEKSSSTAYMQLSSLTSEDSAVYYCARGDVDVWGTGTTVTVSS VL: DIQMTQSPSSLSASLGERVSLTCRASQEIRGYLSWLQQKPNGTIKRLIYAASTLDSGVPKRFSATRSGSDFSLTISSLESEDFADYYCLQYASYPFTFGSGTKLEIK . Its OD450 nm was 1.78

Entry under test: L1D12 (antibody, human IgG1, V domains shown, also called LID12) VH: QVQLVQSGGGLVQPGGSLRLSCAASGFTVSSNYMSWVRQAPGKGLEWVSVIYSGGSTYYADSVKGRFTISRDNSKNTLYLQMNSLRAEDTAVYYCARGFHDILTGYGMDVWGQGTTVTVSS VL: SSELTQDPAVSVALGQTVRITCQGDSLRNYYAGWYQQKPGQAPVLVIYGKNNRPSGIPDRFSGSSSGNTASLTITGTQAEDEADYYCSSRDNSGTHLVEFGGGTKLTVL . Its OD450 nm was 1.65

Entry under test: L9G7 (antibody, human IgG1, V domains shown) VH: QIQLVQSGAEVKKPGASVKVSCKASGYTFTSYGISWVRQAPGQGLEWMGWISAYNGNTNYAQKLQGRVTMTTDTSTSTAYMELRSLRSDDTAVYYCARTYYDILTGYYYYGMDVWGQGTTVTVSS VL: EIVLTQSPGTLSLSPGERATLSCRTSQSVDTYLAWYQQKPGQAPRLLIYDASNRATGIPARFSGSGSGTDFTLTISSLEPEDFAVYYCQQRSNWPLTFGGGTKVEIK . Its OD450 nm was 1.71

Entry under test: 8E7D9C7F5 (antibody, V domains shown, Mouse hybridoma antibody purified on Protein G) VH: QVQLQQSGVELARPGASVKLSCKASGYTFTSYGISWVKQRTGQALEWIGEIYPRSGNTYYNEKFKGKATLTADKSSSTAYMELRSLTSEDSAVYFCARSGPITTLVATDYGMDYWGQGTSVTVSS VL: DIVLTQSPASLAVSLGQRATISCRASKSVSTSSYSYMHWYQQKPGQPPKLLIKFASNLESGVPARFSGSGSGTDFTLNIHPVEEEDAATYYCQHSREFPYTFGGGTKLEIK . Its OD450 nm was 2.53
